This collection of values is drawn from patent US20110183954A1.

- measured_target: human JAK2 (Homo sapiens, UniProt O60674)
- Sequence (O60674 808-1132 limits assumed): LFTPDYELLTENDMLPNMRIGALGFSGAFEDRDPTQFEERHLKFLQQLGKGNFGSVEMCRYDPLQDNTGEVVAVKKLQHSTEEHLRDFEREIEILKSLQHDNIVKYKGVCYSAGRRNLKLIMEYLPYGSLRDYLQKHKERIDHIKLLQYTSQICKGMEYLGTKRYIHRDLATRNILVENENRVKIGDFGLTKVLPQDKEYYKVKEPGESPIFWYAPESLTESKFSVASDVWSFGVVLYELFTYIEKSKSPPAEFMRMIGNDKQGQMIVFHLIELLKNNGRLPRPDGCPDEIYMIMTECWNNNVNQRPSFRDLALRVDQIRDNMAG
- assay_notes: Method 1 (JAK2): Amplified Luminescent Proximity Assay (Alphascreen)
- Assay type: biochemical
- Parameters: His6 (C); purchased Upstate Biotechnology; host or cells: baculovirus in Sf21 cells
- measurement_conditions: 150 pM JAK2 enzyme, 5 mM ATP, 60 minutes, room temperature, read-out: IC50 (JAK inhibitory activity, Method 1 (JAK2))
result_type: IC50 (nM)

a. C[C@H](Nc1nc(Nc2cn(C)cn2)nc(N2CCC(F)(F)CC2)n1)c1ncc(F)cn1 [Example 14]
b. COC[C@H](Nc1nc(Nc2cn(C)cn2)nc(N2CCOCC2)n1)c1ncc(F)cc1F [Example 4]
c. C[C@H](Nc1nc(Nc2cn(CC(F)(F)F)cn2)nc(N2CCOCC2)n1)c1ncc(F)cn1 [Example 34]
d. COCn1cnc(Nc2nc(N[C@@H](C)c3ncc(F)cn3)nc(N3CCOCC3)n2)c1 [Example 16]
e. C[C@H](Nc1nc(Nc2cn(CCc3ccsc3)cn2)nc(N2CCOCC2)n1)c1ncc(F)cn1 [Example 33]
Highest to lowest IC50: rank the entries shown above. Please write the labels in the order that was asked for.
c, d, e, a, b
